- subject_of_test: hFFA2 (Homo sapiens, UniProt O15552)
- Construct: host or cells: CHO-K1
- Sequence (O15552 whole entry): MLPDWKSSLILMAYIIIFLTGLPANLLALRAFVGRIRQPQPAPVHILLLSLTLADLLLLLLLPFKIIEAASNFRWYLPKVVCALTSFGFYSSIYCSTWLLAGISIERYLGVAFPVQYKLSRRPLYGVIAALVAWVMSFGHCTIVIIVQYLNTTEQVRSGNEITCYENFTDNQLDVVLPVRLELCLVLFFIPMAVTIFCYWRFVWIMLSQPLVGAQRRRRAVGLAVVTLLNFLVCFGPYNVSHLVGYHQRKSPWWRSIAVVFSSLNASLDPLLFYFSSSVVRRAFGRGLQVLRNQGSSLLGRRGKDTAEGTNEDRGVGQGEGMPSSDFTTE
- procedure_summary: Fluo-4 Direct Ca^2+ flux assay in CHO cells stably expressing hFFA2
- Format: cell-based
- measurement_conditions: ligand alone, CHO-hFFA2

- compound: "O=C(O)C[C@H](C(=O)Nc1nc(-c2ccccc2Cl)cs1)c1ccccc1 [S-2CTAP]"
  subject_of_test: "hFFA2 (Homo sapiens, UniProt O15552)"
  Ca^2+ response (in words): "decreased Ca^2+"
- compound: "O=C(O)C[C@@H](C(=O)Nc1nc(-c2ccccc2Cl)cs1)c1ccccc1 [R-2CTAP]"
  subject_of_test: "hFFA2 (Homo sapiens, UniProt O15552)"
  Ca^2+ response (in words): "decreased Ca^2+"
